assay.system: cyclophilin B (CypB) (Homo sapiens (Human), UniProt P23284)
Sequence (P23284 34-216): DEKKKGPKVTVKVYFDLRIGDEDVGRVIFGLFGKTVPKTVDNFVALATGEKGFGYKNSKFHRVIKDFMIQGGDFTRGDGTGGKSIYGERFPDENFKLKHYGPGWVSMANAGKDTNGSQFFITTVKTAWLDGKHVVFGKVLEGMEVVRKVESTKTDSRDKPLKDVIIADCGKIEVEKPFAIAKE
assay: Inhibitor binding to cyclophilin proteins by SPR, CypB
Parameters: unit not given here
recorded.conditions: 1:1 binding model
Starred links: 1 amine or outer side, 2 acyl side, 3 side chain; linkers in the order of their positions; H or OH if unused. Non-standard residues stand in square brackets, D forms with d. Residues, ends and D or L forms follow the SMILES beside them. X61 = C[C@@H]1CN(CCOC[C@@H](C)[C@@H](C(=O)[*:2])N(C)[*:1])[C@H](C)CO1; X26 = C[C@H](CN1CCn2c(nnc2C(F)(F)F)C1)[C@@H](C(=O)[*:2])N(C)[*:1]; X16 = C[C@H](CN1CCN(S(C)(=O)=O)CC1)[C@@H](C(=O)[*:2])N(C)[*:1]; X54 = CCOC(=O)N1CCN(C[C@@H](C)[C@@H](C(=O)[*:2])N(C)[*:1])CC1; X68 = C[C@H](CCN1CCC(C#N)CC1)[C@@H](C(=O)[*:2])N(C)[*:1]; NMe(dihydroBmt) = CCCC[C@@H](C)[C@@H](O)[C@H](NC)C(=O)O; X9 = C[C@@H](CN1CCOCC1)[C@@H](C(=O)[*:2])N(C)[*:1]; MeBmt = C/C=C/C[C@@H](C)[C@@H](O)[C@H](NC)C(=O)O; NMeL = CN[C@@H](CC(C)C)C(=O)O; NMeV = CN[C@H](C(=O)O)C(C)C; dNMeA = CN[C@H](C)C(=O)O; Abu = CC[C@H](N)C(=O)O
Kindly supply the reported CypB Kd values for the records listed here.

[ask] Name the recorded CypB Kd for C/C=C/C[C@@H](C)[C@@H](O)[C@H]1C(=O)N[C@@H](CC)C(=O)N(C)[C@H](C)C(=O)N(C)[C@@H]([C@H](C)CN2CCn3c(nnc3C(F)(F)F)C2)C(=O)N[C@@H](C(C)C)C(=O)N(C)[C@@H](CC(C)C)C(=O)N[C@@H](C)C(=O)N[C@H](C)C(=O)N(C)[C@@H](CC(C)C)C(=O)N(C)[C@@H](CC(C)C)C(=O)N(C)[C@@H](C(C)C)C(=O)N1C [Compound 2.5.19] (cyclo(A[dA][NMeL][NMeL][NMeV][MeBmt][Abu][dNMeA][X26]V[NMeL])) .
[reply] 1.2

[ask] And C/C=C/C[C@@H](C)[C@@H](O)[C@H]1C(=O)N[C@@H](CC)C(=O)N(C)[C@H](C)C(=O)N(C)[C@@H]([C@H](C)CN2CCN(S(C)(=O)=O)CC2)C(=O)N[C@@H](C(C)C)C(=O)N(C)[C@@H](CC(C)C)C(=O)N[C@@H](C)C(=O)N[C@H](C)C(=O)N(C)[C@@H](CC(C)C)C(=O)N(C)[C@@H](CC(C)C)C(=O)N(C)[C@@H](C(C)C)C(=O)N1C [Compound 2.5.5] (cyclo(A[dA][NMeL][NMeL][NMeV][MeBmt][Abu][dNMeA][X16]V[NMeL])) ?
[reply] 1.9

[ask] Query C/C=C/C[C@@H](C)[C@@H](O)[C@H]1C(=O)N[C@@H](CC)C(=O)N(C)[C@H](CCCN2CCOCC2)C(=O)N(C)[C@@H]([C@H](C)CS(C)(=O)=O)C(=O)N[C@@H](C(C)C)C(=O)N(C)[C@@H](CC(C)C)C(=O)N[C@@H](C)C(=O)N[C@H](C)C(=O)N(C)[C@@H](CC(C)C)C(=O)N(C)[C@@H](CC(C)C)C(=O)N(C)[C@@H](C(C)C)C(=O)N1C (stereo in doubt) next
[reply] 4.4

[ask] Please do the same for C/C=C/C[C@@H](C)[C@@H](O)[C@H]1C(=O)N[C@@H](CC)C(=O)N(C)[C@H](C)C(=O)N(C)[C@@H]([C@H](C)COCCN2C[C@@H](C)OC[C@H]2C)C(=O)N[C@@H](C(C)C)C(=O)N(C)[C@@H](CC(C)C)C(=O)N[C@@H](C)C(=O)N[C@H](C)C(=O)N(C)[C@@H](CC(C)C)C(=O)N(C)[C@@H](CC(C)C)C(=O)N(C)[C@@H](C(C)C)C(=O)N1C [Compound 2.8.4] (cyclo(A[dA][NMeL][NMeL][NMeV][MeBmt][Abu][dNMeA][X61]V[NMeL])) as well.
[reply] 0.7

[ask] Same question, C/C=C/C[C@@H](C)[C@@H](O)[C@H]1C(=O)N[C@@H](CC)C(=O)N(C)[C@H](C)C(=O)N(C)[C@@H]([C@H](C)CN2CCN(C(=O)OCC)CC2)C(=O)N[C@@H](C(C)C)C(=O)N(C)[C@@H](CC(C)C)C(=O)N[C@@H](C)C(=O)N[C@H](C)C(=O)N(C)[C@@H](CC(C)C)C(=O)N(C)[C@@H](CC(C)C)C(=O)N(C)[C@@H](C(C)C)C(=O)N1C [Compound 2.5.31] (cyclo(A[dA][NMeL][NMeL][NMeV][MeBmt][Abu][dNMeA][X54]V[NMeL])) this time
[reply] 1.1

[ask] Try the compound C/C=C/C[C@@H](C)[C@@H](O)[C@H]1C(=O)N[C@@H](CC)C(=O)N(C)[C@H](C(C)C)C(=O)N(C)C([C@H](C)COC)C(=O)N[C@@H](C(C)C)C(=O)N(C)[C@@H](CC(C)C)C(=O)N[C@@H](C)C(=O)N[C@H](C)C(=O)N(C)[C@@H](CC(C)C)C(=O)N(C)[C@@H](CC(C)C)C(=O)N(C)[C@@H](C(C)C)C(=O)N1C (stereo in doubt)
[reply] 7.4

[ask] Cool, now CCCC[C@@H](C)[C@@H](O)[C@H]1C(=O)N[C@@H](CC)C(=O)N(C)[C@H](C)C(=O)N(C)[C@@H]([C@@H](C)CN2CCO[C@H](COC)C2)C(=O)N[C@@H](C(C)C)C(=O)N(C)[C@@H](CC(C)C)C(=O)N[C@@H](C)C(=O)N[C@H](C)C(=O)N(C)[C@@H](CC(C)C)C(=O)N(C)[C@@H](CC(C)C)C(=O)N(C)[C@@H](C(C)C)C(=O)N1C
[reply] 0.7

[ask] // query: CCCC[C@@H](C)[C@@H](O)[C@H]1C(=O)N[C@@H](CC)C(=O)N(C)[C@H](C)C(=O)N(C)[C@@H]([C@@H](C)CN2CCOCC2)C(=O)N[C@@H](C(C)C)C(=O)N(C)[C@@H](CC(C)C)C(=O)N[C@@H](C)C(=O)N[C@H](C)C(=O)N(C)[C@@H](CC(C)C)C(=O)N(C)[C@@H](CC(C)C)C(=O)N(C)[C@@H](C(C)C)C(=O)N1C [Compound 2.17.7] (cyclo(A[dA][NMeL][NMeL][NMeV][NMe(dihydroBmt)][Abu][dNMeA][X9]V[NMeL]))
[reply] 0.7

[ask] What about this compound? C/C=C/C[C@@H](C)[C@@H](O)[C@H]1C(=O)N[C@@H](CC)C(=O)N(C)[C@H](C)C(=O)N(C)[C@@H]([C@H](C)CCN2CCC(C#N)CC2)C(=O)N[C@@H](C(C)C)C(=O)N(C)[C@@H](CC(C)C)C(=O)N[C@@H](C)C(=O)N[C@H](C)C(=O)N(C)[C@@H](CC(C)C)C(=O)N(C)[C@@H](CC(C)C)C(=O)N(C)[C@@H](C(C)C)C(=O)N1C [Compound 2.18.2] (cyclo(A[dA][NMeL][NMeL][NMeV][MeBmt][Abu][dNMeA][X68]V[NMeL]))
[reply] 0.7

* * *

assay.system: cyclophilin A (CypA) (Homo sapiens (Human))
Sequence (P62937 whole entry): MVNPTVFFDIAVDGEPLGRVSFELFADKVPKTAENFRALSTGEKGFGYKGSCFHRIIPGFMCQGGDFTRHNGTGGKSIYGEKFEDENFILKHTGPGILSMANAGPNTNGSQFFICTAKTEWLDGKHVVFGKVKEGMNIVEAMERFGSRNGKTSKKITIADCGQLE
assay: Inhibitor binding to cyclophilin proteins by SPR, CypA;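 also: Single-cycle kinetics on a Biacore T200, compound injected at several concentrations for 1 min each at 50 µL/min, then 10 min dissociation, in HEPES pH 7.4 buffer with 3% DMSO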
Design: unit not given here
recorded.conditions: 1:1 binding model
Starred links: 1 amine or outer side, 2 acyl side, 3 side chain; linkers in the order of their positions; H or OH if unused. Non-standard residues stand in square brackets, D forms with d. Residues, ends and D or L forms follow the SMILES beside them. X61 = C[C@@H]1CN(CCOC[C@@H](C)[C@@H](C(=O)[*:2])N(C)[*:1])[C@H](C)CO1; X50 = C[C@H](CN1CCNC(=O)C1)[C@@H](C(=O)[*:2])N(C)[*:1]; MeBmt = C/C=C/C[C@@H](C)[C@@H](O)[C@H](NC)C(=O)O; NMeL = CN[C@@H](CC(C)C)C(=O)O; NMeV = CN[C@H](C(=O)O)C(C)C; dNMeA = CN[C@H](C)C(=O)O; Abu = CC[C@H](N)C(=O)O
Record form. Attribute: CypA Kd. Fill in for each entry.
Please state the value as a number alone, without comment.

[ask] Data request, read-out CypA Kd, for C/C=C/C[C@@H](C)[C@@H](O)[C@H]1C(=O)N[C@@H](CC)C(=O)N(C)[C@H](C)C(=O)N(C)[C@@H]([C@H](C)COCCN2C[C@@H](C)OC[C@H]2C)C(=O)N[C@@H](C(C)C)C(=O)N(C)[C@@H](CC(C)C)C(=O)N[C@@H](C)C(=O)N[C@H](C)C(=O)N(C)[C@@H](CC(C)C)C(=O)N(C)[C@@H](CC(C)C)C(=O)N(C)[C@@H](C(C)C)C(=O)N1C [Compound 2.8.4] (cyclo(A[dA][NMeL][NMeL][NMeV][MeBmt][Abu][dNMeA][X61]V[NMeL]))
[reply] 0.9

[ask] Next compound: C/C=C/C[C@@H](C)[C@@H](O)[C@H]1C(=O)N[C@@H](CC)C(=O)N(C)[C@H](C)C(=O)N(C)[C@@H]([C@H](C)CN2CCNC(=O)C2)C(=O)N[C@@H](C(C)C)C(=O)N(C)[C@@H](CC(C)C)C(=O)N[C@@H](C)C(=O)N[C@H](C)C(=O)N(C)[C@@H](CC(C)C)C(=O)N(C)[C@@H](CC(C)C)C(=O)N(C)[C@@H](C(C)C)C(=O)N1C [Compound 2.5.30] (cyclo(A[dA][NMeL][NMeL][NMeV][MeBmt][Abu][dNMeA][X50]V[NMeL]))
[reply] 1.7
